# MEASUREMENT_PROTOCOL: Pharmacokinetics, plasma AMG 900 by LC-MS/MS after multiple oral administrations
# Assay type: in vivo
# CONDITION_SET: human, 25 mg
MEASUREMENT_LABEL: AUC(0-t) (ng·h/mL)
Your answer is read as ng·h/mL, so omit the unit and give the number.

Request: What AUC(0-t) value was documented for this molecule, "Cc1csc(-c2nnc(Nc3ccc(Oc4ncccc4-c4ccnc(N)n4)cc3)c3ccccc23)c1" ?
Result: 2740

====

# MEASUREMENT_PROTOCOL: Pharmacokinetics, plasma AMG 900 by LC-MS/MS after multiple oral administrations
# Type: in vivo
# CONDITION_SET: human, 100 mg
MEASUREMENT_LABEL: Cmax (ng/mL)
Your answer is read as ng/mL, so omit the unit and give the number.

Request: What Cmax value was documented for this compound, Cc1csc(-c2nnc(Nc3ccc(Oc4ncccc4-c4ccnc(N)n4)cc3)c3ccccc23)c1 [AMG 900] ?
Result: 3670

====

# MEASUREMENT_PROTOCOL: Pharmacokinetics, plasma AMG 900 by LC-MS/MS after multiple oral administrations
# Type: in vivo
# CONDITION_SET: human, 40 mg
MEASUREMENT_LABEL: AUC(0-t) (µg·h/mL)
Your answer is read as µg·h/mL, so omit the unit and give the number.

Request: What AUC(0-t) value was documented for this molecule, "Cc1csc(-c2nnc(Nc3ccc(Oc4ncccc4-c4ccnc(N)n4)cc3)c3ccccc23)c1" ?
Result: 4.36

====

# MEASUREMENT_PROTOCOL: Pharmacokinetics, plasma AMG 900 by LC-MS/MS after multiple oral administrations
# Assay type: in vivo
# CONDITION_SET: human, 80 mg
MEASUREMENT_LABEL: AUC(0-t) (ng·h/mL)
Your answer is read as ng·h/mL, so omit the unit and give the number.

Request: What AUC(0-t) value was documented for this compound, Cc1csc(-c2nnc(Nc3ccc(Oc4ncccc4-c4ccnc(N)n4)cc3)c3ccccc23)c1 [AMG 900] ?
Result: 3210

====

# MEASUREMENT_PROTOCOL: Pharmacokinetics, plasma AMG 900 by LC-MS/MS after multiple oral administrations
# Assay type: in vivo
# CONDITION_SET: human, 60 mg
MEASUREMENT_LABEL: AUC(0-t) (ng·h/mL)
Your answer is read as ng·h/mL, so omit the unit and give the number.

Request: What AUC(0-t) value was documented for this compound, "Cc1csc(-c2nnc(Nc3ccc(Oc4ncccc4-c4ccnc(N)n4)cc3)c3ccccc23)c1" ?
Result: 5620

====

# MEASUREMENT_PROTOCOL: Pharmacokinetics, plasma AMG 900 by LC-MS/MS after multiple oral administrations
# Type: in vivo
# CONDITION_SET: human, 40 mg
MEASUREMENT_LABEL: Cmax
Quick note: unit goes after the number.

Request: What Cmax value was documented for this compound, Cc1csc(-c2nnc(Nc3ccc(Oc4ncccc4-c4ccnc(N)n4)cc3)c3ccccc23)c1 [AMG 900] ?
Result: 1600 ng/mL

Data provenance: paper PMC5925751
